Attribution: ChEMBL document CHEMBL1961873

Reported inhibition values are given for each entry in this list.
Molecular target: Maternal embryonic leucine zipper kinase (Homo sapiens);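 further: each value is the mean inhibition of MELK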
Conditions: at 1 µM
Parameter measured: inhibition (%)

1. CCN1CCC(CC(=O)Nc2n[nH]c3nc(-c4cccs4)c(Br)cc23)CC1 :: 0.98
2. COc1cc2ncn(-c3cc(O[C@H](C)c4ccccc4Cl)c(C(N)=O)s3)c2cc1OC :: 23.7
3. Fc1cccc(COc2ccc(Nc3ncnc4sc(-c5cccs5)cc34)cc2Cl)c1 :: 3.16
4. CCCN1CCC(Oc2cc(Nc3nc(Nc4cccc(F)c4C(N)=O)c4cc[nH]c4n3)c(OC)cc2Cl)CC1 :: 21.2
5. COc1ccc(-c2ccncc2)cc1C(N)=O :: 8.7
6. Cc1nnc(-c2ccc(C)c(-c3ccc(C(=O)Nc4cccc(C#N)c4)cc3)c2)o1 :: 6.64
7. O=C(Nc1n[nH]c2nc(-c3ccco3)c(Br)cc12)C1CC1 :: 7.3
8. CN(C)c1cc2c(Nc3ccc4nc(Cc5ccccc5)[nH]c4c3)ncnc2cn1 :: 11.4
9. O=C1Nc2ccc(C(=O)c3ccco3)cc2C1=Cc1cc(Cl)c(O)c(Cl)c1 :: 17.8
10. COc1cccc(-n2ncc3c(N/N=C/c4cccc(F)c4)ncnc32)c1 :: 11
11. CCn1c(-c2nonc2N)nc2cncc(C(=O)N3CC[C@H](N)C3)c21 :: 60.6
12. Cc1cccc(-c2n[nH]cc2-c2ccc3ncccc3n2)n1 :: 4.06
13. Fc1cccc(COc2ccc(Nc3ncnc4cc(-c5ccc[nH]5)sc34)cc2Cl)c1 :: 5.38
14. CS(=O)(=O)CCNCc1ccc(-c2ccc3ncnc(Nc4ccc(OCc5ccccc5)c(Cl)c4)c3c2)o1 :: 3.16
15. Cc1ccc(NC(=O)c2ccnc(N3CCCC3)c2)cc1-c1ccc(C(=O)NCC2CC2)cc1 :: 7.99
16. O=C1NC(=O)C(c2ccc(Cl)cc2)=C1Nc1ccc(Cl)c(C(=O)O)c1 :: 1.25
17. COc1ccccc1Nc1ncc(-c2ccccc2)o1 :: 8.09
18. CCn1c(-c2nonc2N)nc2ccncc21 :: 2.39
19. CCCN1CCC=C(c2ccc(Nc3nc(Nc4ccccc4C(N)=O)c4cc[nH]c4n3)c(C)c2)C1 :: 44.7
20. CCn1c(-c2nonc2N)nc2c(C#CC(C)(C)O)nc(OC[C@@H](N)c3ccccc3)cc21 :: 27.5
21. Cc1ccc(C(=O)NC2CCCCC2)cc1-c1ccc(C(=O)NCC2CC2)cc1 :: 2.41

###

System: Tyrosine-protein kinase ABL1 (Homo sapiens), P00519 [E255K]
Sequence (P00519 whole entry E255K): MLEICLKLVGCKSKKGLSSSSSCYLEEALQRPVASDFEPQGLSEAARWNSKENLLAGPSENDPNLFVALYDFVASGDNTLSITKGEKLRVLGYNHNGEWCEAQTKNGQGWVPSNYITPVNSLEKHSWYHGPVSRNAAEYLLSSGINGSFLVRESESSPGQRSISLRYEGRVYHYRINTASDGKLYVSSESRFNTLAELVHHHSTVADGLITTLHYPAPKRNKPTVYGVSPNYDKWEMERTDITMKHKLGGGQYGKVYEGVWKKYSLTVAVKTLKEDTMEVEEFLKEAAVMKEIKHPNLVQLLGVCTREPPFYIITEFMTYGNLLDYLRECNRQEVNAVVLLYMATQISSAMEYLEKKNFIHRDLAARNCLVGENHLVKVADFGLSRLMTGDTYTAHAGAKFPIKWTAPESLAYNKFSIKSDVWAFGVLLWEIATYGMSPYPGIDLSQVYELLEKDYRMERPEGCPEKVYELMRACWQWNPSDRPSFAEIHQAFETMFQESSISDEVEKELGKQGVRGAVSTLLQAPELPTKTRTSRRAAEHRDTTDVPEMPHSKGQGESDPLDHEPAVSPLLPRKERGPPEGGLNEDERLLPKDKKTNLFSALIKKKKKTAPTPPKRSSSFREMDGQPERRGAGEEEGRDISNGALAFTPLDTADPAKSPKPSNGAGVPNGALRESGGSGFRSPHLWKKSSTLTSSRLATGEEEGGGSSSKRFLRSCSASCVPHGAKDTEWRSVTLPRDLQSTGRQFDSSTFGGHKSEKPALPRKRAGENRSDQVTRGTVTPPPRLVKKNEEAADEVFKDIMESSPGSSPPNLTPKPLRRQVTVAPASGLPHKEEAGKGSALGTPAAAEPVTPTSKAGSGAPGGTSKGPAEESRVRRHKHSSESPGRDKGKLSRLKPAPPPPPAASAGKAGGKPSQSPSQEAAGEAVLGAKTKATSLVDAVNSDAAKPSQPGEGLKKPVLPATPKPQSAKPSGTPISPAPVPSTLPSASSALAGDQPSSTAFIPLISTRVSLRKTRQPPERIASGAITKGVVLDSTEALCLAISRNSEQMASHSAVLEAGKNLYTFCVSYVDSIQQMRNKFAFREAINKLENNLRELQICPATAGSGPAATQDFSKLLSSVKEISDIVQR
Settings: at 0.1 µM
Reported inhibition values are given for each entry in this list.
Parameter measured: inhibition (%)

1) CCCN1CCC(Oc2cc(Nc3nc(Nc4cccc(F)c4C(N)=O)c4cc[nH]c4n3)c(OC)cc2Cl)CC1 :: -0.41
2) CCn1c(-c2nonc2N)nc2c(C#CC(C)(C)O)nc(CN3CCCC3)cc21 :: 0.01
3) CCn1c(-c2nonc2N)nc2ccncc21 :: 1.78
4) COc1ccc(-c2ccncc2)cc1C(N)=O :: 2.26
5) COc1cc2ncn(-c3cc(OCc4ccccc4Cl)c(C(N)=O)s3)c2cc1OC :: 1.52
6) Cc1ccc(NC(=O)c2ccnc(N3CCCC3)c2)cc1-c1ccc(C(=O)NCC2CC2)cc1 :: 1.9
7) NS(=O)(=O)c1ccc(N/N=C2\C(=O)Nc3ccc(C(=O)NCCc4c[nH]cn4)cc32)cc1 :: 5.1
8) Nc1ncnc2occ(-c3ccc(NC(=O)Nc4cccc(C(F)(F)F)c4)cc3)c12 :: 5.41
9) CN1CCC(C(=O)Nc2n[nH]c3nnc(-c4ccccc4)cc23)CC1 :: 1.81
10) NS(=O)(=O)c1cccc(-c2ccc3c(NC(=O)C4CC4)n[nH]c3c2)c1 :: 1.26
11) O=C1NC(=O)C(c2ccc(Cl)cc2)=C1Nc1ccc(Cl)c(C(=O)O)c1 :: 2.02

###

Biological target: Tyrosine-protein kinase Srms (Homo sapiens) (UniProt Q9H3Y6)
Sequence (Q9H3Y6 whole entry): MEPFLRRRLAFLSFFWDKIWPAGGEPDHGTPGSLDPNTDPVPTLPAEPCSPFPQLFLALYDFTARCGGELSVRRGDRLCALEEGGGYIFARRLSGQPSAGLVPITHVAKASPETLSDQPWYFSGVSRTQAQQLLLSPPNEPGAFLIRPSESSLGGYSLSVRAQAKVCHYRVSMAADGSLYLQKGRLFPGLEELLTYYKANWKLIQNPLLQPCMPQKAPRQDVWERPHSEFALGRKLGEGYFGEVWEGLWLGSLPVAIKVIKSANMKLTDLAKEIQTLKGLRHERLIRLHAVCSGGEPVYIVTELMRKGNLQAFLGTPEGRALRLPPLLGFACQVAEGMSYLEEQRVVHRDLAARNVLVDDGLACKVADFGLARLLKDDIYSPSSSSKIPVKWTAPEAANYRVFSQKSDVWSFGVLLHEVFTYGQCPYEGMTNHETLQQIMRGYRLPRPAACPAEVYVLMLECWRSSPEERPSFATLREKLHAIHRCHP
Settings: at 1 µM
Description: GSK_PKIS: SRMS mean inhibition at 1 uM [Nanosyn]
Parameter measured: inhibition (%)

1) CS(=O)(=O)CCNCc1nc(-c2ccc3ncnc(Nc4ccc(F)c(Cl)c4)c3c2)cs1 :: 1.81
2) COc1ccc(-c2ccncc2)cc1C(N)=O :: -5.88
3) O=C1NC(=O)C(c2ccccc2Cl)=C1Nc1cccc(O)c1 :: -2.12
4) Nc1nc(-c2ccc3c(c2)C(=Cc2cc(Br)c(O)c(Br)c2)C(=O)N3)cs1 :: 53
5) COc1ccc(COc2ccc(Cc3cnc(N)nc3N)cc2OC)cc1 :: 1.88
6) NCc1ccc(-c2nc(-c3ccc(Cl)c(O)c3)c(-c3ccncc3)[nH]2)cc1 :: 21.7
7) CCn1c(-c2nonc2N)nc2c(C#CC(C)(C)O)nc(CN3CCCC3)cc21 :: -0.75
8) CCc1cccc(NC(=O)Nc2ccc(Oc3ccc4nc(NC(=O)OC)[nH]c4c3)cc2)c1 :: 1.28
9) NS(=O)(=O)c1ccc(N/N=C2\C(=O)Nc3ccc(C(=O)NCCc4c[nH]cn4)cc32)cc1 :: 1.4
10) CCCN1CCC=C(c2ccc(Nc3nc(Nc4ccccc4C(N)=O)c4cc[nH]c4n3)c(C)c2)C1 :: 0.8

###

Reported inhibition values are given for each entry in this list.
Target: Mitogen-activated protein kinase 12 (Homo sapiens);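 further: values are averaged p38gamma kinase inhibition readings, compounds tested at 1 µM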
Sequence (whole entry): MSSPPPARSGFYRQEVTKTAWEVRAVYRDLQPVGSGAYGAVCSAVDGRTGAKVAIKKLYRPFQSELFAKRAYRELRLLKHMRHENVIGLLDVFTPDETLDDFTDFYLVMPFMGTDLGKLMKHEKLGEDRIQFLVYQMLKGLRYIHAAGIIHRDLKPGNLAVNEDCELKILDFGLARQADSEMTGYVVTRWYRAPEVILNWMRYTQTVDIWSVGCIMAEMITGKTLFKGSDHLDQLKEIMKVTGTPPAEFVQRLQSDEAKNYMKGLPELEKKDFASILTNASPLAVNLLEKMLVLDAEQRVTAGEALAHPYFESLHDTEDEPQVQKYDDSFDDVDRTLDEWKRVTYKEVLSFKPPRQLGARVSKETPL
Details: at 1 µM
Parameter measured: inhibition (%)

1) NS(=O)(=O)c1ccc(N/N=C2\C(=O)Nc3ccc(C(=O)NCCc4c[nH]cn4)cc32)cc1 :: 2.64
2) O=C(Nc1n[nH]c2nc(-c3ccco3)c(Br)cc12)C1CC1 :: 2.11
3) COc1cc2ncn(-c3cc(O[C@H](C)c4ccccc4Cl)c(C(N)=O)s3)c2cc1OC :: 3.72
4) Cn1cc(C=C2C(=O)Nc3cccnc32)c2ccccc21 :: 2.65
5) Cc1ccc(NC(=O)c2ccnc(N3CCCC3)c2)cc1-c1ccc(C(=O)NCC2CC2)cc1 :: 4.14
6) CCn1c(-c2nonc2N)nc2ccncc21 :: 1.43
7) O=C1NC(=O)C(N2CCc3ccccc32)=C1c1ccc(Cl)cc1 :: 3.35
8) COc1ccc(-c2ccncc2)cc1C(N)=O :: 5.57
9) N#Cc1c(NC(=O)c2cccc3ccccc23)sc2c1CCCC2 :: 2.56
10) COc1cc2c(cc1Nc1nc(N3CCc4ccccc43)c3cc[nH]c3n1)N(C(=O)CN(C)C)CC2 :: 1.21
11) Cc1cc(O)cc(C)c1/C=C/c1cncc(-c2nn[nH]n2)c1 :: 3.07
12) CC1=C(C(=O)Nc2ccc3[nH]ncc3c2)C(c2ccc(F)cc2)NC(=O)N1 (configuration not stated) :: 1.7
13) O=C1NC(=O)C(c2cccc(Cl)c2)=C1Nc1ccc(O)c(Cl)c1 :: 0.35
14) COc1cc(C)c(NC(=O)CN(C)C)cc1Nc1nc(Nc2cccc(F)c2C(N)=O)c2cc[nH]c2n1 :: 1.38
15) COc1cc2ncn(-c3cc(O[C@@H](C)c4ccccc4Cl)c(C(N)=O)s3)c2cc1OC :: 3.72
16) COc1cc2ncn(-c3cc(OCc4ccccc4C(F)(F)F)c(C(N)=O)s3)c2cc1OC :: 6.13
17) COc1ccc(COc2ccc(Cc3cnc(N)nc3N)cc2OC)cc1 :: 1.41
18) COc1ccccc1Nc1ncc(-c2ccccc2)o1 :: 4.08
19) CCN1CCC(CC(=O)Nc2n[nH]c3nc(-c4cccs4)c(Br)cc23)CC1 :: -2.22
20) CC1=C(C(=O)Nc2ccc3[nH]ncc3c2)C(c2ccc(Cl)c(Cl)c2)CC(=O)N1 (configuration not stated) :: 1.19
21) Nc1ncnc2occ(-c3ccc(NC(=O)Nc4cc(C(F)(F)F)cc(C(F)(F)F)c4)cc3)c12 :: 10.2
22) CCn1c(-c2nonc2N)nc2c(C#CC(C)(C)O)nc(CN3CCCC3)cc21 :: 0.15

###

Reported inhibition values are given for each entry in this list.
Biological target: Proto-oncogene tyrosine-protein kinase ROS (Homo sapiens) (UniProt P08922);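 further: value given is the mean percent inhibition of ROS kinase activity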
Sequence (P08922 whole entry): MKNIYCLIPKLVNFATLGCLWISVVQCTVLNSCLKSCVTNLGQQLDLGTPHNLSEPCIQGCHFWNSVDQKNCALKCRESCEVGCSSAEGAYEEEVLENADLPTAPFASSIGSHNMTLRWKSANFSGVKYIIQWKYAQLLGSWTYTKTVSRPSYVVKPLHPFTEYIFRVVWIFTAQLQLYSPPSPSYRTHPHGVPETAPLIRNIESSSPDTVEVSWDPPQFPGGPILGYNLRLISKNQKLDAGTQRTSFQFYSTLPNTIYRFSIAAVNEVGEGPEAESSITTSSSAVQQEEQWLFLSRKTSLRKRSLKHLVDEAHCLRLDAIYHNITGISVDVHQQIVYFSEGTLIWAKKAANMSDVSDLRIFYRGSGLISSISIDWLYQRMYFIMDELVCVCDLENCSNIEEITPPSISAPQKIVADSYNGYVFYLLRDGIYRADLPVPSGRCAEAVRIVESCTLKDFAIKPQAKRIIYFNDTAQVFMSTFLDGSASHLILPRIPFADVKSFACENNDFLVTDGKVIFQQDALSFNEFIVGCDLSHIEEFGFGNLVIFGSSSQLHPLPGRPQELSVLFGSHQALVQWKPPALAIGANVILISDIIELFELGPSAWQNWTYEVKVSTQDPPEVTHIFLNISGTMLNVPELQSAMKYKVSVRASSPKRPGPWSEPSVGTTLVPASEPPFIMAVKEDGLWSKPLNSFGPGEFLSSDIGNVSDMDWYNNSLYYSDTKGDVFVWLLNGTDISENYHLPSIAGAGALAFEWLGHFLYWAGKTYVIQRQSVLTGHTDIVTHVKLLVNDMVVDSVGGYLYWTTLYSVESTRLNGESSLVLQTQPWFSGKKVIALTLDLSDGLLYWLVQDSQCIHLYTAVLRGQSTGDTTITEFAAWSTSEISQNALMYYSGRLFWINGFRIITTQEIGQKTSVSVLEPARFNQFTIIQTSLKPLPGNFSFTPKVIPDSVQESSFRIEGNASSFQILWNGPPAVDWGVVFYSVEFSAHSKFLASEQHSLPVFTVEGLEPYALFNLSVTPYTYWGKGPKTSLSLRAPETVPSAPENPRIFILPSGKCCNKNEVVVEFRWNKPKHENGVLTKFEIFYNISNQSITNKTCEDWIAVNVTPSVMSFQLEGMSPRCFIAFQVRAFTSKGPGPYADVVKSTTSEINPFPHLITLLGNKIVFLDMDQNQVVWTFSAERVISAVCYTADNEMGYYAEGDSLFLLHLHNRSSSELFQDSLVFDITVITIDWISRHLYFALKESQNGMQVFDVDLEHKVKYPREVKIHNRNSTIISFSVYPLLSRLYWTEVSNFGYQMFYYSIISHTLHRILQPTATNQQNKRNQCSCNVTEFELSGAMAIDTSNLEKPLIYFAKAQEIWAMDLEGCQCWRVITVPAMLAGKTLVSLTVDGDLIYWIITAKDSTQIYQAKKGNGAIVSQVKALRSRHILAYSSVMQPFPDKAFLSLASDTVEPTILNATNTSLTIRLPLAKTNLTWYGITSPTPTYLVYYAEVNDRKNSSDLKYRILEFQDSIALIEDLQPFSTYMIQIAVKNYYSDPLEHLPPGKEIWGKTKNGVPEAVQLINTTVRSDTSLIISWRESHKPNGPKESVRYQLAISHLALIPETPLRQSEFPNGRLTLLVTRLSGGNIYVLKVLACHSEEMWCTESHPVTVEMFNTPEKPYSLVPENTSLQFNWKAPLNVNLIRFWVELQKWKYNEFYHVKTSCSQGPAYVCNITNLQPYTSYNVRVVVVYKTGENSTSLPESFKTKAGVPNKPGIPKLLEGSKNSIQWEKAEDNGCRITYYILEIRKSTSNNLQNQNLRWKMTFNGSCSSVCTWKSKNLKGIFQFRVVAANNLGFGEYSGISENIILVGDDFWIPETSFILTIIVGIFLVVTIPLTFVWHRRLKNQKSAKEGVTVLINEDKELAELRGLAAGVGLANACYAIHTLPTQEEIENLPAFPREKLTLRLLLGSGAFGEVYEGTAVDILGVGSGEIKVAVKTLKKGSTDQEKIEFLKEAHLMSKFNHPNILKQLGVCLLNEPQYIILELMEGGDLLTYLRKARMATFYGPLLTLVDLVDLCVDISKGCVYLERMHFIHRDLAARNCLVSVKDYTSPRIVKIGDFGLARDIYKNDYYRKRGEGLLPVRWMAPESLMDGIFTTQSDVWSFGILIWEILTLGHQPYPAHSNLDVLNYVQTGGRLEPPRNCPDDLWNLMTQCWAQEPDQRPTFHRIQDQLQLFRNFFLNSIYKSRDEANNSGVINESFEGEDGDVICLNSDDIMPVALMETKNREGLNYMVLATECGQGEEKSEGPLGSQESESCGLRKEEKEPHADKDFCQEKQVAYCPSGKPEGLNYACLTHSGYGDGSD
Conditions: at 1 µM
Parameter measured: inhibition (%)

1. Nc1nc(-c2ccccn2)c(-c2ccc3ncccc3n2)s1 :: 4.03
2. O=C1NC(=O)C(N2CCc3ccccc32)=C1c1ccc(Cl)cc1 :: 14.1
3. Cc1cccc(-c2n[nH]cc2-c2ccc3ncccc3n2)n1 :: 4.08
4. N#Cc1c(NC(=O)c2cccc3ccccc23)sc2c1CCCC2 :: 5.26
5. Cc1cc(O)cc(C)c1/C=C/c1cncc(-c2nn[nH]n2)c1 :: 11.7
6. COc1ccc(COc2ccc(Cc3cnc(N)nc3N)cc2OC)cc1 :: 4.98
7. CCN1CCC(CC(=O)Nc2n[nH]c3nc(-c4cccs4)c(Br)cc23)CC1 :: -0.04
8. CS(=O)(=O)CCN(CC#N)Cc1ccc(-c2ccc3ncnc(Nc4ccc(OCc5cccc(F)c5)c(Cl)c4)c3c2)o1 :: 4.3
9. CCn1c(-c2nonc2N)nc2cnc(Oc3cccc(NC(=O)c4ccc(OCCN5CCOCC5)cc4)c3)cc21 :: 11
10. CCn1c(-c2nonc2N)nc2c(C#CC(C)(C)O)nc(OC[C@@H](N)c3ccccc3)cc21 :: 11.2
11. CCc1cccc(NC(=O)Nc2ccc(Oc3ccc4nc(NC(=O)OC)[nH]c4c3)cc2)c1 :: 0.49
12. O=C(Nc1n[nH]c2nc(-c3ccco3)c(Br)cc12)C1CC1 :: 3.03
13. NC(=O)c1cccc(Nc2nccc(Nc3cccc4[nH]ncc34)n2)c1 :: 66
14. Fc1cccc(COc2ccc(Nc3ncnc4sc(-c5cccs5)cc34)cc2Cl)c1 :: 4.79
15. COc1cc(C=NNc2ncnc3c2cnn3-c2ccccc2)ccc1O :: 31.2
16. O=C1NC(=O)C(c2cccc(Cl)c2)=C1Nc1ccc(O)c(Cl)c1 :: 7.24
